Source listed as patent US9643968B2.

Test system: MCF-7 (human breast cancer)
assayInfo: MTT in vitro cytotoxicity, MCF-7
Format: cell-based
setupConditions: MCF7, 72 hr incubation
pIC50: −log10 of the molar value.
Listed compounds paired with reported pIC50
readoutLabel: pIC50

{"columns": ["compound", "readoutLabel", "testResult"],
 "data": [
  ["CN(C)CCN1C(=O)c2c3cc(Br)ccc3nc3cccc1c23 [Compound 7a]", "pIC50", 5.70],
  ["CN(C)CCCN1C(=O)c2c3cc(Br)ccc3nc3cccc1c23 [Compound 7b]", "pIC50", 5.67],
  ["CN(C)CCCN1C(=O)c2c3cc(I)ccc3nc3cccc1c23 [Compound 7d]", "pIC50", 5.55]
]}

###

System: SK-OV-3 (human ovarian adenocarcinoma)
assayInfo: MTT in vitro cytotoxicity, SK-OV-3
Format: cell-based
setupConditions: 72 hr incubation
pIC50: −log10 of the molar value.
readoutLabel: pIC50

{"columns": ["compound", "system", "readoutLabel", "comparisonOperator", "testResult"],
 "data": [
  ["O=C1c2c3ccccc3nc3cccc(c23)N1CCCN1CCCC1", "SK-OV-3 (human ovarian adenocarcinoma)", "pIC50", "=", 4.92],
  ["O=C1c2c3ccccc3nc3cccc(c23)N1CCCN1CCOCC1", "SK-OV-3 (human ovarian adenocarcinoma)", "pIC50", "=", 5.07],
  ["O=C1c2c3ccccc3nc3cccc(c23)N1c1ccccc1 [Compound 6b, reference compound]", "SK-OV-3 (human ovarian adenocarcinoma)", "pIC50", "<", 4.30],
  ["CN(C)CCN1C(=O)c2c3ccccc3nc3cccc1c23", "SK-OV-3 (human ovarian adenocarcinoma)", "pIC50", "=", 4.83],
  ["CCCCN1C(=O)c2c3ccccc3nc3cccc1c23 [Compound 6a, reference compound]", "SK-OV-3 (human ovarian adenocarcinoma)", "pIC50", "<", 4.30],
  ["O=C1c2c3ccccc3nc3cccc(c23)N1CCN1CCCCC1", "SK-OV-3 (human ovarian adenocarcinoma)", "pIC50", "=", 5.44],
  ["O=C1c2c3ccccc3nc3cccc(c23)N1CCN1CCCC1", "SK-OV-3 (human ovarian adenocarcinoma)", "pIC50", "=", 5.19]
]}

###

Test system: U87MG (human glioblastoma cell)
assayInfo: MTT in vitro cytotoxicity, U87MG
Type: cell-based
setupConditions: U-87 MG, 72 hr incubation
IC50 overview
readoutLabel: IC50 (nM)

{"columns": ["compound", "system", "comparisonOperator", "testResult"],
 "data": [
  ["CN(C)CCN1C(=O)c2c3cc(Cl)ccc3nc3cccc1c23 [Compound 2b]", "U87MG (human glioblastoma cell)", "=", 1450],
  ["O=C1c2c3ccccc3nc3cccc(c23)N1CCCN1CCOCC1 [Compound 1b]", "U87MG (human glioblastoma cell)", "=", 1780],
  ["O=C1c2c3ccccc3nc3cccc(c23)N1CCN1CCCCC1 [Compound 1f]", "U87MG (human glioblastoma cell)", "=", 3930],
  ["Cc1ccc2c3c(c4cccc(F)c4nc13)C(=O)N2CCN(C)C [Compound 5d]", "U87MG (human glioblastoma cell)", "=", 1420],
  ["Cc1ccc2nc3c(C)ccc4c3c(c2c1)C(=O)N4CCN(C)C [Compound 5a]", "U87MG (human glioblastoma cell)", "=", 1480],
  ["COc1ccc2nc3cccc4c3c(c2c1)C(=O)N4CCN1CCCCC1 [Compound 4c]", "U87MG (human glioblastoma cell)", "=", 497],
  ["O=C1c2c3cccc(F)c3nc3cccc(c23)N1CCN1CCCCC1 [Compound 4d]", "U87MG (human glioblastoma cell)", "=", 1780],
  ["CN(C)CCN1C(=O)c2c3ccccc3nc3c([N+](=O)[O-])ccc1c23 [Compound 2e]", "U87MG (human glioblastoma cell)", "=", 1740],
  ["COc1ccc2nc3cccc4c3c(c2c1)C(=O)N4CCCN(C)C [Compound 3c]", "U87MG (human glioblastoma cell)", "=", 1850],
  ["Cc1ccc2nc3cccc4c3c(c2c1)C(=O)N4CCN1CCCCC1 [Compound 4a]", "U87MG (human glioblastoma cell)", "=", 1330],
  ["CN(C)CCN1C(=O)c2c3ccccc3nc3cccc1c23 [Compound 1a]", "U87MG (human glioblastoma cell)", "=", 582],
  ["O=C1c2c3cc(Cl)ccc3nc3cccc(c23)N1CCN1CCCCC1 [Compound 4b]", "U87MG (human glioblastoma cell)", "=", 1890],
  ["O=C1c2c3ccccc3nc3cccc(c23)N1CCCN1CCCC1 [Compound 1h]", "U87MG (human glioblastoma cell)", "=", 10200],
  ["CN(C)CCCN1C(=O)c2c3cccc(F)c3nc3cccc1c23 [Compound 3d]", "U87MG (human glioblastoma cell)", "=", 2360],
  ["Cc1ccc2c3c(c4cc(Cl)ccc4nc13)C(=O)N2CCN(C)C [Compound 5b]", "U87MG (human glioblastoma cell)", "=", 1270],
  ["CN(C)CCN1C(=O)c2c3cccc(F)c3nc3cccc1c23 [Compound 2d]", "U87MG (human glioblastoma cell)", "=", 1700],
  ["CN(C)CCCN1C(=O)c2c3cc(Cl)ccc3nc3cccc1c23 [Compound 3b]", "U87MG (human glioblastoma cell)", "=", 1580],
  ["COc1ccc2nc3c(C)ccc4c3c(c2c1)C(=O)N4CCN(C)C [Compound 5c]", "U87MG (human glioblastoma cell)", "=", 269],
  ["CCCCN1C(=O)c2c3ccccc3nc3cccc1c23 [Compound 6a, reference compound]", "U87MG (human glioblastoma cell)", ">", 50000]
]}
